- Experimental target: T1, hmm.hTfRC (REGN2431), human transferrin receptor extracellular domain with hexahistidine-myc-myc tag (human, UniProt P02786 89-760)
- T1 construct: Monomeric recombinant protein, 79210 g/mol; also called hTFR-mmh; His-myc-myc-hTFRC ecto
- T1 sequence (P02786 other isoform, or with tags, fused parts or gaps): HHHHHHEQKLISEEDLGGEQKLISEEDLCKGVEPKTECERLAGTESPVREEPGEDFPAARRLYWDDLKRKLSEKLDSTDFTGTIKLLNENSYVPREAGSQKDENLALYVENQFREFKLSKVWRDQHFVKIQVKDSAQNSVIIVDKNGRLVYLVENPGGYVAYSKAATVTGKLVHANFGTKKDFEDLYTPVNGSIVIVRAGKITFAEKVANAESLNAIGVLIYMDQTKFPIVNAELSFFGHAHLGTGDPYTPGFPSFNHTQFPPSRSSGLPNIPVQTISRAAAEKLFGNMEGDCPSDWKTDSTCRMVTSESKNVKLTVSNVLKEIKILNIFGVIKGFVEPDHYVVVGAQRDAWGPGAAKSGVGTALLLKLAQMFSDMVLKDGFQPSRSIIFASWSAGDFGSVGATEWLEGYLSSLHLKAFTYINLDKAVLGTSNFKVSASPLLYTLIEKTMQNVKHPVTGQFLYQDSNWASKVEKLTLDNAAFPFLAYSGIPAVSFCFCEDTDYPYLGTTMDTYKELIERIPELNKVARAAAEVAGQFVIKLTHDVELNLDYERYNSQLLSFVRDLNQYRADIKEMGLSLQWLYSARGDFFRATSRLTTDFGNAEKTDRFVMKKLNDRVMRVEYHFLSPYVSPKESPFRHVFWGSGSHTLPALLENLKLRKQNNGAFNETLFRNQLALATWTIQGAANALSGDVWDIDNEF
- Method description: SPR (Biacore), mAb captured on anti-human Fc, 100 nM hTFR-mmh, 25 C
koff below 0.0001 s⁻¹ gives label 0; koff at or above it gives label 1.

# Binder, Assigned label
records = [
    ("69340 (antibody, human IgG1, kappa, V domains shown, Tested as bivalent human IgG1 from CHO primary supernatant) VH: EVQLVESGGGLVQPGRSLRLSCAASGFTFDDKAMHWVRQVPGKGLEWISGISWNSGTIGYADSVKGRFIISRDNAKNSLYLQMNSLRAEDTALYYCAKDGDTSGWYWYGLDVWGQGTTVTVSS VL: EIVLTQSPATLSLSPGERATLSCRASQSVSSYLAWYQQKPGQAPRLLIHDVSNRATGIPARFSGSGSGTDFTLTISSLEPEDFVVYYCQQRSDWPITFGQGTRLEIKR", "label 0"),
    ("12808B (antibody, human IgG1, kappa, V domains shown, Tested as bivalent human IgG1 from CHO primary supernatant) VH: QLQLQESGPGLVKPSETLSLTCTVSGESISSNTYYWGWIRQPPGKGLEWIGSIDYSGTTNYNPSLKSRVTISVDTSRNHFSLRLRSVTAADTAVYYCAREWGNYGYYYGMDVWGQGTTVTVSS VL: DIQMTQSPSSLSASVGDRVTINCRASQGIRNDLGWYQQKPGKAPKRLIYAASSLQSGVPLRFSGSGSGTEFTLTINNLQPEDFATYYCLSHNSYPWTFGQGTKVEIKR", "label 1"),
    ("69326 (antibody, human IgG1, kappa, V domains shown, Tested as bivalent human IgG1 from CHO primary supernatant) VH: EVQLVESGGGLVQPGGSLRLSCAVSGFIFSSYEMNWVRQAPGKGLEWVSYISSSGSTIFYADSVKGRFTISRDNAKNSLYLQMNSLRAEDTAVYYCVSGVVLFDVWGQGTMVTVSS VL: EIVMTQSPATLSVSPGERATLSCRASQSVSSNFAWYQQKPGQAPRLLIYSASSRATGIPVRFSGSGSGTEFTLTISSLQSEDFAVYYCQQYNIWPRTFGQGTKVEIKR", "label 1"),
    ("31874B (antibody, human IgG1, kappa, V domains shown, Tested as bivalent human IgG1 from CHO primary supernatant; also called H1H31874B; REGN17517) VH: EVQLVESGGGLVQPGGSLRLSCAASGFAFSSYAMTWVRQAPGKGLEWVSVISGTGGSTYYADSVKGRFTISRDNSKNTLYLQMNSLRAEDTAVYYCAKGGAARRMEYFQYWGQGTLVTVSS VL: DIQMTQSPSSLSASVGDRVTITCRASQGISNYLAWYQQKPGKVPNLLIYAASTLQSGVPSRFSGSGSGTDFTLTISSLQPEDVATYYCQKYNSAPLTFGGGTKVEIKR", "label 1"),
    ("12812B (antibody, human IgG1, kappa, V domains shown, Tested as bivalent human IgG1 from CHO primary supernatant) VH: QVQLVQSGAEVKKPGSSVRVSCKASRGTFSSYAISWVRQAPGQGLEWMGGIIPIFGTANYAQKFLARVTITADESTSTAYMELSSLRSEDTAVYYCAREKGWNYFDYWGQGTLVTVSS VL: DIQMTQSPPSVSASVGDRVTITCRASQGISSWLAWYQQKPGKAPKLLIYAASSLQSGVPSRFSGSGSGTDFTLTISSLQPEDFATYYCQQANSFPRTFGQGTKVEIKR", "label 1"),
]
